- Protocol text: AP1 Signaling Pathway (AID 357);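 also: ME-180 reporter cells stimulated with EGF at its EC50 level; % is scaled to controls: 0 for no effect and ±100 for the full control effect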
- Settings: ME-180 (cervical carcinoma) AP-1-bla reporter, EGF-induced, beta-lactamase ratio, 5 h; at 17.2 µM (top of the series) unless noted
Records with an inconclusive call do not appear.
Recorded activity change, negative = inhibition values for a group of compounds are listed next.
Measurement label: activity change, negative = inhibition (%)

> print(dat)
                                    compound  value.unit  test.result
 1       Cc1nn(CC(=O)N2CCOCC2)c(=O)c2ccccc12           %         10.7
 2  O=C(NC1CCCCC1)Nn1c(-c2ccccc2)nc2ccccc2c1=O           %        -2.78
 3  CCCc1cc(=O)oc2c(CN3CCN(C)CC3)c(O)c(Cl)cc12           %       -0.941
 4    COc1ccc(-c2c3c([nH]c(=S)c2C#N)CCC3)cc1           %         22.9
 5       O=C(NCCCN1CCOCC1)C1(c2ccccc2)CCOCC1           %         3.71
 6  CC(C(=O)N1CCOCC1)N1C(=O)c2ccccc2C1=O (stereo not drawn)           %         14.2
 7     COc1ccc(-c2cc(-c3ccccc3)n3ncnc3n2)cc1           %        -5.02
 8  Cc1nc2c(o1)CCc1ccccc1C2N1CCN(C)CC1 (stereo not drawn)           %         22.5
 9  CC(C)C1Cc2c(sc3c2c(=O)n(-c2ccccc2)c2nncn32)CO1 (stereo not drawn)           %        -6.58
10  CCCCOc1ccccc1/C=c1/sc2nc(-c3oc4ccccc4c3C)nn2c1=O           %         4.54
11  O=C(NC[C@@H]1CCCCN1)c1cc(OCC(F)(F)F)ccc1OCC(F)(F)F           %        -1.96
12             COc1ccc(-c2nc3n(c2Br)CCC3)cc1           %        -3.45
13   CCOCc1nc(N)[nH]c(=O)c1Cc1ccc(OC(C)C)cc1           %         1.48

====

Recorded activity change, negative = inhibition values for a group of compounds are listed next.
- Protocol text: NFAT Signaling Pathway (AID 444);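 also: carbachol stimulus at about its EC50 of 1 µM final; % is scaled to controls: 0 for no effect and ±100 for the full control effect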
- Settings: Jurkat NFAT-bla M1, carbachol, beta-lactamase ratio, 5 h; at 17.2 µM (top of the series) unless noted
Inconclusive results are not listed. Calls of active or inactive are those of the source. Calls come from the whole dose curve; as a rule, active = well fitted curve in either direction with a large enough effect (not every such curve was filed as active); inconclusive = small, poorly fitted or top-dose-only effect, or another doubt; inactive = flat fitted curve, though single readings scatter.
Measurement label: activity change, negative = inhibition

> print(dat)
                              smiles.string                       measurement.label                   test.result
1     COc1ccccc1N1CCN(CCOc2c(OC)cccc2OC)CC1  activity change, negative = inhibition              12.8% (inactive)
2  Cn1c(=O)c2c(nc(/C=C\c3cccc(Cl)c3)n2C)n(C)c1=O  activity change, negative = inhibition  -6.69% [at 38 µM] (inactive)
3              CC(=O)c1c(N)nc2n(c1=O)CCCCC2  activity change, negative = inhibition             -9.74% (inactive)
4            O=C(COc1ccc(Cl)cc1)Nc1ccccc1CO  activity change, negative = inhibition              6.35% (inactive)
5  COc1ccc(/C=N/n2cncn2)cc1COc1ccc(NC(C)=O)cc1  activity change, negative = inhibition              2.89% (inactive)
6  CCOC(=O)NC(Nc1cc(C)on1)(C(F)(F)F)C(F)(F)F  activity change, negative = inhibition             -2.55% (inactive)

====

- System under test: Cytochrome P450 2D6 (Homo sapiens) (UniProt P10635)
- Sequence (P10635 whole entry, looked up): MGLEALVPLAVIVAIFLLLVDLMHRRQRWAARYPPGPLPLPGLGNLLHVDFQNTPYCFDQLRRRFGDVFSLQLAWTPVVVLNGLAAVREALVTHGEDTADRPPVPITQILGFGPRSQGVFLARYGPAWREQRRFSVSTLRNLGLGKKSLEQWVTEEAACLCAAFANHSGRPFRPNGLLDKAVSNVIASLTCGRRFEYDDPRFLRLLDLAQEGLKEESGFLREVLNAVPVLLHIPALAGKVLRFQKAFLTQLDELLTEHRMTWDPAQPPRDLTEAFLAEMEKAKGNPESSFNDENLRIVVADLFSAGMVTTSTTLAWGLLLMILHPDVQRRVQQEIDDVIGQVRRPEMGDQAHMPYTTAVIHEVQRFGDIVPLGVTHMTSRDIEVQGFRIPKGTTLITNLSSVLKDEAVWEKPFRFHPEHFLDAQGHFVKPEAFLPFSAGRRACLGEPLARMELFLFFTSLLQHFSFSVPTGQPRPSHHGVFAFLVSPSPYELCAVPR
- Protocol text: qHTS Assay for Inhibitors and Substrates of Cytochrome P450 2D6 (AID 891); also: nearly all actives have a fitted effect of over 60% in size
- Settings: recombinant CYP2D6, luciferin-ME EGE luminescence; series mostly up to 57.1 µM
Inconclusive results are not listed. Calls of active or inactive are those of the source. Calls come from the whole dose curve; as a rule, active = well fitted inhibition curve with a large enough effect; inconclusive = small, poorly fitted or top-dose-only effect; inactive = no such curve, though single readings can be large or run the other way.
Outcomes: label 1 for active, label 0 for inactive

Smiles string	System under test	Class assignment
COc1ccc2nc3c(cc2c1)Cc1ccccc1-3	Cytochrome P450 2D6 (Homo sapiens) (UniProt P10635)	label 1
CC(C)C[C@@H](CC(=O)N[C@@H](CCC(=O)O)CC(=O)O)NC(=O)[C@@H]1CNCC[C@H]1NC(=O)C[C@@H](NC(=O)C[C@H](CO)NC(=O)[C@@H]1CCCC[C@H]1N)C(C)C	Cytochrome P450 2D6 (Homo sapiens) (UniProt P10635)	label 0
Cc1c(C(=O)O)c(O)cc2c1C(=O)c1c(O)c([C@@H]3O[C@H](CO)[C@@H](O)[C@H](O)[C@@H]3O)c(O)c(O)c1C2=O	Cytochrome P450 2D6 (Homo sapiens) (UniProt P10635)	label 0
c1ccc2c(c1)Cc1cc3ccccc3nc1-2	Cytochrome P450 2D6 (Homo sapiens) (UniProt P10635)	label 1
CNC(=O)[C@H](C)[C@@H]1C[C@@]1(C)[C@@H](NC(=O)OCc1ccccc1)c1ccccc1	Cytochrome P450 2D6 (Homo sapiens) (UniProt P10635)	label 1
COc1cccc2c1C(=O)c1c(O)c3c(c(O)c1C2=O)C[C@](O)(C(C)=O)C[C@H]3O[C@@H]1C[C@H](N)[C@H](O)[C@H](C)O1	Cytochrome P450 2D6 (Homo sapiens) (UniProt P10635)	label 0
CC(C)[C@@H](CC(=O)N[C@@H]1CCCC[C@H]1C(=O)N[C@H](CC(=O)N[C@@H](CCC(=O)O)CC(=O)O)Cc1ccccc1)NC(=O)C[C@H](CO)NC(=O)[C@@H]1CCCC[C@H]1N	Cytochrome P450 2D6 (Homo sapiens) (UniProt P10635)	label 0
O=c1ccn([C@H]2O[C@H](CO)[C@@H](O)[C@@H]2O)c(=O)[nH]1	Cytochrome P450 2D6 (Homo sapiens) (UniProt P10635)	label 0

====

- Protocol text: NFAT Signaling Pathway (AID 444);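 also: carbachol stimulus at about its EC50 of 1 µM final; % is scaled to controls: 0 for no effect and ±100 for the full control effect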
- Settings: Jurkat NFAT-bla M1, carbachol, beta-lactamase ratio, 5 h; at 17.2 µM (top of the series) unless noted
Records with an inconclusive call do not appear.
Recorded activity change, negative = inhibition values for a group of compounds are listed next.
Measurement label: activity change, negative = inhibition (%)

> print(dat)
                                    compound  test.result
 1              O=C(C/C(=N/O)c1ccccc1O)C(F)F       0.0588
 2  COc1cccc(C2/C(=C(/O)c3ccc(C)cc3)C(=O)C(=O)N2Cc2ccco2)c1 (centres undefined)         -8.9
 3                          CC(=O)Nc1ccccc1O           16
 4           N#Cc1nc(-c2ccc(F)cc2)oc1N1CCCC1        -1.86
 5         NC(=O)CSc1nc(N)c2c3c(sc2n1)CCCCC3        -8.37
 6           Cn1cc(C(=O)NCN2CCCCC2)c2ccccc21       -0.662
 7                            C1CNCCNCCNCCN1          6.5
 8     O=C(OCC#CCSc1nnc(-c2ccccc2)o1)c1cccs1        -29.9
 9                    O=C(Nc1cccnc1)c1cccnc1        -7.91
10  CCC1(C)Cc2c(sc3nc4n(c(=O)c23)CCS4)CO1 (centres undefined)        -16.6
11  CCOC(=O)NC(Nc1sc2c(c1C(N)=O)CCCC2)(C(=O)OCC)C(F)(F)F (centres undefined)       -0.536
12             N#Cc1nc(COc2ccccc2)oc1N1CCCC1         4.75
13                Cc1nnc(SCCC#N)n(CCC#N)c1=O        -2.84
14  CC(C)C1Cc2c(sc3c2c(=O)n(-c2ccccc2)c2nncn32)CO1 (centres undefined)        -10.2
15        c1ccc(OCc2nn3c(C4CCCCC4)nnc3s2)cc1       0.0415
16  CN(C)c1ccc(C2C3C(=O)N(c4ccc(C(=O)O)cc4)C(=O)C3ON2c2ccccc2)cc1 (centres undefined)         17.3
17     C=CCNc1nc(N2CCOCC2)c(C#N)c2c1CN(C)CC2        -4.25
18  COc1ccccc1C(CC(=O)Nc1nccs1)c1ccco1 (centres undefined)        -20.1
19  CCOC(=O)c1cnc(SC2CC(=O)N(c3cccc(OC)c3)C2=O)nc1N (centres undefined)        -6.66
20  COC(=O)C1=C(C)N=C2SC(C)C(=O)N2C1c1cccs1 (centres undefined)        -9.72
21  CN(C)CCNC(=O)C12CC3(C)CC(C)(CC(C)(C3)C1)C2        -25.2
22  O=C1C2ON(c3ccccc3)C(c3ccncc3)C2C(=O)N1c1ccccc1 (centres undefined)         3.71
23  COc1ccccc1N(O)C1CC(=O)N(c2ccc(Br)cc2)C1=O (centres undefined)        -6.72
24  O=C(C1=C(O)C(=O)N(CCCN2CCOCC2)C1c1ccccn1)c1cc2ccccc2o1 (centres undefined)         1.99
25  Cc1ccc(N2C(=O)[C@@H]3[C@H](C2=O)C2CCCN2[C@@H]3C(=O)c2ccccc2)cc1 (some centres undefined)         9.36
26   COc1ccc(C2=Nn3c(nnc3-c3ccccc3)SC2)cc1OC        -10.8
27  COC(=O)c1ccc(C2/C(=C(\O)c3cccc(OC)c3)C(=O)C(=O)N2CCCN(C)C)cc1 (centres undefined)         3.34
28  CC1N(O)C(c2ccc(Cl)cc2Cl)N(O)C1(C)C (centres undefined)        -14.6
29  COc1cccc(/C=C2/CN(C)CC3=C2OC(N)=C(C#N)C3c2cccc(OC)c2)c1 (centres undefined)       -0.393
30  N/C(=N\c1nc2ccccc2o1)NC(=O)c1ccccc1NC(=O)c1ccccc1        -14.2
31  C#CC1CN(Cc2ccccc2)CC(C#C)N1C (centres undefined)        -2.08
32       Cn1c(/C(C#N)=C/Nc2ccccn2)nc2ccccc21        -5.83
33                       Nc1nonc1OCCc1ccccc1         3.18
34  CCOC(=O)C(C)Oc1nc(Oc2ccccc2)nc(N(C)C)n1 (centres undefined)           11
